Target chain: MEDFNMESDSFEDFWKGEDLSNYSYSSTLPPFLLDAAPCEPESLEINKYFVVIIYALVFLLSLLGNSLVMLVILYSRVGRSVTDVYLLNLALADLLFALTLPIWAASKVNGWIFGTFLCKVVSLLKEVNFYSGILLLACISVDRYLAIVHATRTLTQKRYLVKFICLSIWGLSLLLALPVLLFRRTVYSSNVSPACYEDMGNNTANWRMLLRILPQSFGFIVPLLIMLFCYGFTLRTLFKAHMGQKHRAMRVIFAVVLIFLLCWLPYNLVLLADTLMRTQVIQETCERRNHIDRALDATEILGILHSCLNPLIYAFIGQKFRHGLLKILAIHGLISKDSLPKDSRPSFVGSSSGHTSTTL
readout: IC50

- smi: "NCCCCN(Cc1nc2ccccc2[nH]1)[C@H]1CCCc2cccnc21"
  result: "> 10 µM"

====

Reported log10(CC50) values for the following compounds.
experiment: Cytotoxicity against human MT4 cells expressing CD4 and CXCR4 assessed as cell viability
condition_parameters: MT4 cells expressing CD4 and CXCR4
readout: log10(CC50) (log10 of the value in µM)

- compound: "c1ccc(CNCCN(Cc2ccc(CNCc3ccccn3)cc2)C2CCCc3cccnc32)cc1 (stereo unspecified)"
  log10(CC50): 1.36
- compound: "c1ccc(CNCc2ccc(CN(Cc3ccccn3)C3CCCc4cccnc43)cc2)nc1 (stereo unspecified)"
  log10(CC50): 1.64
- compound: "c1ccc(CNCc2ccc(CN(Cc3nc4ccccc4[nH]3)C3CCCc4cccnc43)cc2)cc1 (stereo unspecified)"
  log10(CC50): 1.42
- compound: "NCCCCCN(Cc1nc2ccccc2[nH]1)C1CCCc2cccnc21 (stereo unspecified)"
  log10(CC50): 1.48
- compound: "NCCN(Cc1ccc(CNCc2ccccn2)cc1)C1CCCc2cccnc21 (stereo unspecified)"
  log10(CC50): 2.10
- compound: "NC/C=C/CN(Cc1nc2ccccc2[nH]1)C1CCCc2cccnc21 (stereo unspecified)"
  log10(CC50): 1.71
- compound: "NCCN(Cc1nc2ccccc2[nH]1)C1CCCc2cccnc21 (stereo unspecified)"
  log10(CC50): 0.84
- compound: "CNCCCCN(Cc1nc2ccccc2[nH]1)C1CCCc2cccnc21 (stereo unspecified)"
  log10(CC50): 1.45
- compound: "NCCCCN(Cc1nc2ccccc2[nH]1)C1CCCc2cccnc21 (stereo unspecified)"
  log10(CC50): 2.20
- compound: "NCc1ccccc1CN(Cc1nc2ccccc2[nH]1)C1CCCc2cccnc21 (stereo unspecified)"
  log10(CC50): 1.47
- compound: "c1ccc(CNCc2ccc(CN(Cc3cc4ccccc4[nH]3)C3CCCc4cccnc43)cc2)nc1 (stereo unspecified)"
  log10(CC50): 0.90
- compound: "NCc1cccc(CN(Cc2nc3ccccc3[nH]2)C2CCCc3cccnc32)c1 (stereo unspecified)"
  log10(CC50): 1.66
- compound: "c1ccc(CNCc2ccc(CN(Cc3ccccn3)C3CCc4cccnc43)cc2)nc1 (stereo unspecified)"
  log10(CC50): 2.09
- compound: "c1ccc(CNCc2ccc(CN(Cn3cnc4ccccc43)C3CCCc4cccnc43)cc2)nc1 (stereo unspecified)"
  log10(CC50): 1.32
- compound: "NC/C=C\\CN(Cc1nc2ccccc2[nH]1)C1CCCc2cccnc21 (stereo unspecified)"
  log10(CC50): 1.72
- compound: "c1ccc(CNCc2ccc(CN(Cc3nc4ccccc4[nH]3)C3CCCc4cccnc43)cc2)nc1 (stereo unspecified)"
  log10(CC50): 1.36
- compound: "NCCCC(=O)N(Cc1nc2ccccc2[nH]1)C1CCCc2cccnc21 (stereo unspecified)"
  log10(CC50): 2.18
- compound: "O=C(Nc1ccccn1)c1ccc(CN(Cc2nc3ccccc3[nH]2)C2CCCc3cccnc32)cc1 (stereo unspecified)"
  log10(CC50): 1.54
- compound: "c1ccc(CNCc2ccc(CN(CCc3nc4ccccc4[nH]3)C3CCCc4cccnc43)cc2)nc1 (stereo unspecified)"
  log10(CC50): 1.36
- compound: "c1ccc(CNCc2ccc(CN(Cc3ncc[nH]3)C3CCCc4cccnc43)cc2)nc1 (stereo unspecified)"
  log10(CC50): -0.30
- compound: "O=C(NCc1ccc(CN(Cc2nc3ccccc3[nH]2)C2CCCc3cccnc32)cc1)c1ccccn1 (stereo unspecified)"
  log10(CC50): 1.57

====

Reported CC50 values follow for various compounds
experiment: Cytotoxicity against human MT4 cells expressing CD4 and CXCR4 assessed as cell viability
condition_parameters: MT4 cells expressing CD4 and CXCR4
readout: CC50 (µM)

- compound: "c1ccc(CNCc2ccc(CN(Cc3nc4ccccc4o3)C3CCCc4cccnc43)cc2)nc1 (configuration not stated)"
  result_units: "µM"
  recorded_number: 204
- compound: "NCC#CCN(Cc1nc2ccccc2[nH]1)C1CCCc2cccnc21 (configuration not stated)"
  result_units: "µM"
  recorded_number: 10.8
- compound: "O=C(NCc1ccccn1)c1ccc(CN(Cc2nc3ccccc3[nH]2)C2CCCc3cccnc32)cc1 (configuration not stated)"
  result_units: "µM"
  recorded_number: 127
- compound: "c1ccc(CNCCN(Cc2ccc(CNCc3ccccn3)cc2)C2CCCc3cccnc32)nc1 (configuration not stated)"
  result_units: "µM"
  recorded_number: 21
- compound: "c1ccc(CN(Cc2ccc(CNCc3ccccn3)cc2)C2CCCc3cccnc32)cc1 (configuration not stated)"
  result_units: "µM"
  recorded_number: 21
- compound: "O=C(Nc1ccc(CN(Cc2nc3ccccc3[nH]2)C2CCCc3cccnc32)cc1)c1ccccn1 (configuration not stated)"
  result_units: "µM"
  recorded_number: 37.5
- compound: "CN(C)CCCCN(Cc1nc2ccccc2[nH]1)C1CCCc2cccnc21 (configuration not stated)"
  result_units: "µM"
  recorded_number: 29.5

====

experiment: Oral bioavailability in dog at 6 mg/kg
Format: ADME, organism-based, Canis lupus familiaris
condition_parameters: in vivo
readout: bioavailability

- smi: "NCCCCN(Cc1nc2ccccc2[nH]1)[C@H]1CCCc2cccnc21"
  result: "80%"

====

Catalogue of IC50 values
system_tested: C-X-C chemokine receptor type 1 (Homo sapiens, UniProt P25024)
Sequence (P25024 whole entry): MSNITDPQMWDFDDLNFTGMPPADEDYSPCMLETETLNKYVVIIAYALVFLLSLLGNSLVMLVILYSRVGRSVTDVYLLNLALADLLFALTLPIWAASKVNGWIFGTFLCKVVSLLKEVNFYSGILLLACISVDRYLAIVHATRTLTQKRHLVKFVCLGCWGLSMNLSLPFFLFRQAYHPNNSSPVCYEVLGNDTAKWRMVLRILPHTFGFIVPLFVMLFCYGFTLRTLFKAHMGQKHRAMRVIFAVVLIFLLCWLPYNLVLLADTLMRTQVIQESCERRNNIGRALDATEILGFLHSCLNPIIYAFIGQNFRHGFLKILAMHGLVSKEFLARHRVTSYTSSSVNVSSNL
readout: IC50

- smi: "NCCCCN(Cc1nc2ccccc2[nH]1)[C@H]1CCCc2cccnc21"
  readout: "IC50"
  result: "> 10 µM"
- smi: "c1ccc(CNCc2ccc(CN(Cc3nc4ccccc4[nH]3)[C@H]3CCCc4cccnc43)cc2)nc1"
  readout: "IC50"
  result: "> 10 µM"

====

# reported CC50; entries follow
experiment: Cytotoxicity against human MT4 cells expressing CD4 and CXCR4 assessed as cell viability
condition_parameters: MT4 cells expressing CD4 and CXCR4

- molecule: "NCc1ccc(CN(Cc2nc3ccccc3[nH]2)C2CCCc3cccnc32)cc1 (stereo not given)"
  result_units: "µM"
  op: "="
  CC50: 238
- molecule: "c1ccc(CCN(Cc2ccc(CNCc3ccccn3)cc2)C2CCCc3cccnc32)nc1 (stereo not given)"
  result_units: "µM"
  op: ">"
  CC50: 118
- molecule: "c1ccc(CNCc2ccc(CN(Cc3nc4ccccc4s3)C3CCCc4cccnc43)cc2)nc1 (stereo not given)"
  result_units: "µM"
  op: "="
  CC50: 22.3
- molecule: "c1ccc(CNCc2ccc(CN(CCCc3nc4ccccc4[nH]3)C3CCCc4cccnc43)cc2)nc1 (stereo not given)"
  result_units: "µM"
  op: "="
  CC50: 101
- molecule: "NCCCN(Cc1nc2ccccc2[nH]1)C1CCCc2cccnc21 (stereo not given)"
  result_units: "µM"
  op: "="
  CC50: 32.9

====

system_tested: C-C chemokine receptor type 1 (Homo sapiens)
Sequence (P32246 whole entry): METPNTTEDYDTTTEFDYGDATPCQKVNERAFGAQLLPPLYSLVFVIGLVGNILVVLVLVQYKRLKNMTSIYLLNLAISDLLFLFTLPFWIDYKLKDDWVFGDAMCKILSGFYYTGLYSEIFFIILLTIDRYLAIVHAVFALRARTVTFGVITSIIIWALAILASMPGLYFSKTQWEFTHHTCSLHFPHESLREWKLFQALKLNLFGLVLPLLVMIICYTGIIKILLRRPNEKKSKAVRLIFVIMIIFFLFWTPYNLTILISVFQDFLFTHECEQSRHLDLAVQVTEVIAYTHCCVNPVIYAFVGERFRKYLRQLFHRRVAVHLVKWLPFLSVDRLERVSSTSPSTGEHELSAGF
experiment: Displacement of radiolabeled MIP1alpha from CCR1 receptor
readout: IC50

- compound: "NCCCCN(Cc1nc2ccccc2[nH]1)[C@H]1CCCc2cccnc21 [MAVORIXAFOR]"
  result: "> 10 µM"

====

experiment: Cmax in rat
Format: ADME, organism-based
condition_parameters: in vivo

- compound: "NCCCCN(Cc1nc2ccccc2[nH]1)[C@H]1CCCc2cccnc21 [MAVORIXAFOR]"
  Cmax: "1200 ng/mL"
- compound: "c1ccc(CNCc2ccc(CN(Cc3nc4ccccc4[nH]3)[C@H]3CCCc4cccnc43)cc2)nc1"
  Cmax: "4500 ng/mL"

====

Overview of reported CC50 across a group of compounds:
experiment: Cytotoxicity against human MT4 cells expressing CD4 and CXCR4 assessed as cell viability
condition_parameters: mt4
readout: CC50 (µM)

- compound: "N#CCCCCN(Cc1nc2ccccc2[nH]1)C1CCCc2cccnc21 (configuration not stated)"
  result_units: "µM"
  recorded_number: 55.3
- compound: "NCCCCCCN(Cc1nc2ccccc2[nH]1)C1CCCc2cccnc21 (configuration not stated)"
  result_units: "µM"
  recorded_number: 30.2

====

We begin with a simple list: items and their reported IC50.
system_tested: C-X-C chemokine receptor type 4 (Homo sapiens)
Sequence (P61073 whole entry): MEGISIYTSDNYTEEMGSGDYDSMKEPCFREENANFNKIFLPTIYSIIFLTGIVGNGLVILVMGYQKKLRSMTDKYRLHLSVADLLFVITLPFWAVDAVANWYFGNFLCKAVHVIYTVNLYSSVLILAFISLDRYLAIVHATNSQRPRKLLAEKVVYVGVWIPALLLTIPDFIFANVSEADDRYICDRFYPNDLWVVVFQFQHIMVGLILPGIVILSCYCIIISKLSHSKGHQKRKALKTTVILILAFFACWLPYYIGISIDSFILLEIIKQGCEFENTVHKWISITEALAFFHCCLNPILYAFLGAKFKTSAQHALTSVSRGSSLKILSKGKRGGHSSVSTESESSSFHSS
experiment: Inhibition of anti-CXCR4 12G5 monoclonal antibody to CXCR4 in human SUP-T1 cells pretreated for 30 mins by flow cytometry
Type: cell-based

- compound: "c1ccc(CNCc2ccc(CN(Cc3nc4ccccc4[nH]3)C3CCCc4cccnc43)cc2)nc1 (stereo not drawn)"
  IC50 [nM]: 250
- compound: "c1ccc(CNCc2ccc(CN(Cc3nc4ccccc4[nH]3)[C@H]3CCCc4cccnc43)cc2)nc1"
  IC50 [nM]: 120
- compound: "c1ccc(CNCc2ccc(CN(Cc3nc4ccccc4[nH]3)[C@@H]3CCCc4cccnc43)cc2)nc1"
  IC50 [nM]: 29200

Source: ChEMBL document CHEMBL1156989
